test system: P. aeruginosa NCTC 13437; assay: Broth microdilution MIC/MBC, P. aeruginosa; type: cell-based, Pseudomonas aeruginosa; conditions: value before the parentheses; two values = two repeats
MEASURE: MIC P. aeruginosa NCTC 13437

Use these answered entries as a reference point.
INSERT INTO results (molecule, system_under_test, result) VALUES
  ('CC[PH](CC)(CC)[Au][S]c1ccc(C(F)(F)F)cc1', 'P. aeruginosa NCTC 13437', '>520 µM'),
  ('C[PH](C)(C)[Au][S]C1OC(CO)C(O)C(O)C1O (centres unmarked) [Compound 38]', 'P. aeruginosa NCTC 13437', '>547 µM'),
  ('CC[P+](CC)(CC)[Au-][S]c1ccc([N+](=O)[O-])cc1', 'P. aeruginosa NCTC 13437', '>546 µM');

Consider [Cl][Au].c1ccc(P(c2ccccc2)c2ccccc2)cc1 [Compound 27, (Triphenylphosphine)gold Chloride] . Its measured MIC P. aeruginosa NCTC 13437 is >518 µM

Consider C[PH](C)(C)[Au][S]C1OC(CO)C(O)C(O)C1O (centres unmarked) [Compound 37] . Its measured MIC P. aeruginosa NCTC 13437 is >547 µM

Consider COc1ccc([P+]([Au-][S][C@@H]2OC(COC(C)=O)[C@@H](OC(C)=O)[C@H](OC(C)=O)C2OC(C)=O)(c2ccc(OC)cc2)c2ccc(OC)cc2)cc1 (some centres unmarked) . Its measured MIC P. aeruginosa NCTC 13437 is >281 µM

Consider `FC(F)(F)c1ccc(P(c2ccc(C(F)(F)F)cc2)c2ccc(C(F)(F)F)cc2)cc1.[Cl][Au]` . Its measured MIC P. aeruginosa NCTC 13437 is >366 µM

Consider `COc1ccc([P+]([Au-][Cl])(c2ccc(OC)cc2)c2ccc(OC)cc2)cc1` . Its measured MIC P. aeruginosa NCTC 13437 is >438 µM
